TARGET: T1, human LAG3 expressed on cells (human, UniProt P18627 23-525)
T1 construct: whole, on cells
T1 sequence (looked up): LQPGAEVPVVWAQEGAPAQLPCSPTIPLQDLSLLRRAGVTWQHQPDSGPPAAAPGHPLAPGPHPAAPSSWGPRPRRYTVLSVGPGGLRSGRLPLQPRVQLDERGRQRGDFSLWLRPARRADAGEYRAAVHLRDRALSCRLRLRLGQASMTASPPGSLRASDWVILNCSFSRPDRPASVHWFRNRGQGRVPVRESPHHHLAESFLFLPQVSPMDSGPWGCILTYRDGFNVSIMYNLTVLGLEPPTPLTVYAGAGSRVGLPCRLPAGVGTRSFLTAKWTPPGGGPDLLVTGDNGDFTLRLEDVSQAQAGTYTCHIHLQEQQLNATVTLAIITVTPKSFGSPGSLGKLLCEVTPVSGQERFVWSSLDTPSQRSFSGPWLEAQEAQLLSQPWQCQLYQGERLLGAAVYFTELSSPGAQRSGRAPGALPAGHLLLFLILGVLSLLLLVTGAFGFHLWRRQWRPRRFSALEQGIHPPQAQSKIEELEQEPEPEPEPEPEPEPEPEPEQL
ASSAY REMARKS: cell ELISA, 293T-hLAG3 cells
Please provide measured OD450 at 10 ug/ml for the entries that follow.
Output: the number by itself.

Exam item: So what does the record say about OD450 at 10 ug/ml for sdAb No. 17-H1 (VHH, Modified sdAb No. 17 (CDR1 DG to DA); not shown: Fc part implied by anti-human IgG1 Fc detection) VHH: QLQLVESGGGLVQPGGSLRLSCAASGLTLDAYAIGWFRQAPGKEREGLACISGSDGSTHYLDSVKGRFTISRDNGKNTMALQMNSLQFGDTAIYYCAARRGSCSGSWTYWGQGTQVTVSS ?
Marked response: 1.5

Exam item: Using the record for sdAb No. 17 (VHH, Fc of the tested form not described; also called sdAb 17; not shown: Fc part implied by anti-human Fc capture and anti-human IgG1 Fc detection) VHH: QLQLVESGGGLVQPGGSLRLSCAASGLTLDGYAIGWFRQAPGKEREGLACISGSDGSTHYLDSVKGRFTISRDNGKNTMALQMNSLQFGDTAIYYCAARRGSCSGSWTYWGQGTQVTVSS , report its OD450 at 10 ug/ml.
Marked response: 1.48
